- assayed_system: T1, Human IL-11 (human, UniProt P20809 22-199)
- T1 construct: Recombinant human IL-11 (GenScript Cat. No. Z03108-1) or IL-11 secreted by human cells; the mature form is said to have 178 residues; also called recombinant human IL-11; endogenously produced IL-11
- T1 sequence: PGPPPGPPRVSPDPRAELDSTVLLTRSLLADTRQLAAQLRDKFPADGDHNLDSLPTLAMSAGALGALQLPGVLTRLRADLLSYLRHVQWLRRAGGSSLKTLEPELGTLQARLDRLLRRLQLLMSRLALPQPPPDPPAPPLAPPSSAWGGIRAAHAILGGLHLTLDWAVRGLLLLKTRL
- method: ELISA
Examples of binders with documented hIL11 - average signal follow.
// return just the number, without any unit appended

1) YU100-E07 (antibody) QVQLQESGGGVVQPGRSLRLSCAASGFTFSSYGMHWVRQAPGKGLEWVAVISYDGSNRYYADSVKGRFAISRDNSKNTLYLQMNSLRAEDTAVYYCAKIGATDPLDYWGQGTLVTVSSGSASAPKLEEGEFSEARVQSALTQPRSVSGSPGQSVTISCTGTSSDVGGYDYVSWYQQHPGKAPELMIYDVTKRPSGVADRFSGSKSGNTASLTISGLQAEDEADYYCCSYAGRYTWVFGGGTKLTVL :: 0.193
2) YU100-E09 (antibody) QVQLVESGGGVVQPGRSLRLSCAASGFTFSSYAMHWVRQAPGKGLEWVAVISYDGSNKYYADSVKGRFTISRDNSKNTLYLQMNSLRAEDTAVYYCARIMGYDYGDYDVVDYWGQGTLVTVSSGSASAPKLEEGEFSEARVQSALTQPRSVSGSPGQSVTISCTGTSSDVGDYDYVSWYQQHPGKAPKLIIYDVTKRPSGIPDRFSGSKSGNTASLTISGLQAEDEADYYCCSYAGSYTWVFGRGTKLTVL :: 0.224
3) YU100-A12 (antibody) QVQLVESGGGVVQPGRSLRLSCAASGFTFSSYGMHWVRQAPGKGLEWVAVISYDGSNKYYADSVKGRFTISRDNSKNTLYLQMNSLRAEDTAVYYCAKIGATDPLDYWGQGTLVTVSSGSASAPKLEEGEFSEARVLPVLTQPRSVSGSPGQSVTISCTGTSSDVGGYNYVSWYQQHPGKAPKLMIYDVSKRPSGVPDRFSGSKSGDTASLTISGLQAEDEADYYCSSYAGSYTWVFGGGTKLTVL :: 0.32

Query :: Reported hIL11 - average signal, binder YU100-E04 (antibody) QVQLQQSGGGVVQPGRSLRLSCAASGFTFSSYGMHWVRQAPGKGLEWVAVISYDGSNKYYADSVKGRFTISRDNSKNTLYLQMNSLRAEDTAVYYCAKIGATDPLDYWGQGTLVTVSSGSASAPKLEEGEFSEARVQSALTQPRSVSGSPGQSVTISCTGTSSDVGGYNYVSWYQQHPGKTPKLMIYDVTKRPSGVPDHFSGSKSGNTASLTISGLQAEDEADYYCCSYAGSHIWVFGGGTKLTVLGQPKAAPSVTLFPPSS : ____
Result :: 0.36

Query :: Reported hIL11 - average signal, binder YU112-H02 (antibody) QVQLVESGGGVVQPGRSLRLSCAASGFTFSSYGMHWVRQAPGKGLEWVAVISYDGSNKYYADSVKGRFTISRDNSKNTLYLQMNSLRAEDTAVYYCAKLSGPNGVDYWGQGTLVTVSSGSASAPKLEEGEFSEARVQPVLTQPRSVSGSPGQSVTISCTGTSSDVGGYNYVSWYQQHPGKAPKVMIYDVSKRPSGVPDRFSGSKSGNTASLTISGLQAEDEADYYCCSYAGSYTWVFGGGTKLTVL : ____
Result :: 0.606
